System: Mus musculus
protocol: Potentiation of yohimbine toxicity in ip dosed aggregated albino CF1 mouse
Type: organism-based
measured_property: ED50

| input_smiles | measured_property | experimental_result |
| --- | --- | --- |
| COc1nnc2n1-c1ccc(Cl)cc1C(c1ccccc1)=NC2 | ED50 | > 50 mg/kg |
| Clc1ccc2c(c1)C(c1ccccc1)=NCc1nnc(N3CCOCC3)n1-2 | ED50 | > 50 mg/kg |
| Clc1ccc2c(c1)C(c1ccccc1)=NCc1nnc(N3CCNCC3)n1-2 | ED50 | > 50 mg/kg |
| CCN(CC)CCOc1nnc2n1-c1ccc(Cl)cc1C(c1ccccc1)=NC2 | ED50 | 42 mg/kg |
| CN(C)c1nnc2n1-c1ccc(Cl)cc1C(c1ccccc1)=NC2 | ED50 | > 50 mg/kg |

Here's the next entry for you.
// query Form field: reported ED50 of `CN1CCN(c2nnc3n2-c2ccc(Cl)cc2C(c2ccccc2Cl)=NC3)CC1`
// result 35.4 mg/kg

---

System: Mus musculus
protocol: Potentiation of yohimbine toxicity in ip dosed aggregated albino CF1 mouse
Format: organism-based
For each entry below, report its ED50 value.

// known answers, use as guide
| input_smiles | experimental_result |
| --- | --- |
| CN(C)CCOc1nnc2n1-c1ccc(Cl)cc1C(c1ccccc1)=NC2 | > 50 mg/kg |
| CCOCc1nnc2n1-c1ccc(Cl)cc1C(c1ccccc1)=NC2 | > 50 mg/kg |

Alright, here's another compound for you.
// query Can you look up the measured ED50 of `Clc1ccc2c(c1)C(c1ccccc1)=NCc1nnc(Cl)n1-2` for me?
// result > 50 mg/kg

---

Tested on: Mus musculus
protocol: Potentiation of yohimbine toxicity in ip dosed aggregated albino CF1 mouse
Type: organism-based
measured_property: ED50

The examples below pair each entry with its known result.
| molecule | experimental_result |
| --- | --- |
| Clc1ccc2c(c1)C(c1ccccc1)=NCc1nnc(N3CCN(c4ccccc4)CC3)n1-2 | > 50 mg/kg |
| CSc1nnc2n1-c1ccc(Cl)cc1C(c1ccccc1)=NC2 | > 50 mg/kg |
| Brc1ccc2c(c1)C(c1ccccn1)=NCc1nncn1-2 | 42 mg/kg |
| Cc1nnc2n1-c1ccc(Br)cc1C(c1ccccn1)=NC2 | > 50 mg/kg |
| CCN1CCN(c2nnc3n2-c2ccccc2C(c2ccccc2Cl)=NC3)CC1 | 30 mg/kg |

Return reported ED50 values for all items listed beneath this line.
1. CC1N=C(c2ccccc2)c2cc(Cl)ccc2-n2cnnc21 (configuration not stated)
2. Cc1nnc2n1-c1ccc(Cl)cc1C(c1ccccc1)=NC2 [ALPRAZOLAM]

// result
1: > 50 mg/kg; 2: > 50 mg/kg

---

Tested on: Mus musculus
protocol: Hypothermic activity in ip dosed albino CF1 mouse assessed as effect on body temperature measured after 45 mins
Assay type: functional
condition_parameters: 0.75 h
Assignment: determine reported ED50 for the given compounds.

Example entries begin here.
| compound | ED50 |
| --- | --- |
| CC1N=C(c2ccccc2)c2cc(Cl)ccc2-n2c(Br)nnc21 (stereo not drawn) | > 50 mg/kg |
| Clc1ccccc1C1=NCc2nnc(N3CCOCC3)n2-c2ccccc21 | > 50 mg/kg |

Consider now this further compound.
// query So what's the measured ED50 for this one? `Clc1ccc2c(c1)C(c1ccccc1)=NCc1nnc(N3CCNCC3)n1-2`
// result > 50 mg/kg

---

Test system: Mus musculus
protocol: Hypothermic activity in ip dosed albino CF1 mouse assessed as effect on body temperature measured after 45 mins
Format: functional
condition_parameters: 0.75 h
measured_property: ED50

// solved cases for ED50 follow
| input_smiles | ED50 |
| --- | --- |
| Nc1nnc2n1-c1ccc(Cl)cc1C(c1ccccc1)=NC2 | 9 mg/kg |
| Clc1ccc2c(c1)C(c1ccccc1)=NCc1nnc(N3CCN(c4ccccc4)CC3)n1-2 | > 50 mg/kg |

Now examine the next entry.
// query Look up ED50 for this compound: `Clc1ccc2c(c1)C(c1ccccc1)=NCc1nnc(C(Cl)Cl)n1-2`
// result > 50 mg/kg

---

Answer each item with its documented ED50.
Tested on: Mus musculus
protocol: Hypothermic activity in ip dosed albino CF1 mouse assessed as effect on body temperature measured after 45 mins
Format: functional
condition_parameters: 0.75 h

A selection of reference data follows.
| molecule | ED50 |
| --- | --- |
| FC(F)(F)c1nnc2n1-c1ccc(Cl)cc1C(c1ccccc1)=NC2 | > 50 mg/kg |
| CC1=NC(c2ccccc2)c2cc(Cl)ccc2-n2c1nnc2N1CCN(C)CC1 (stereo unspecified) | > 50 mg/kg |
| Clc1ccccc1C1=NCc2nnc(Br)n2-c2ccccc21 | > 50 mg/kg |
| CN1CCN(c2nnc3n2-c2ccc(Cl)cc2C(c2ccccc2)=NC3)CC1 | > 50 mg/kg |
| Cc1nnc2n1-c1ccc(Cl)cc1C(c1ccccc1)=NC2 | > 50 mg/kg |

// query For `CN1CCN(c2nnc3n2-c2ccc(Br)cc2C(c2ccccn2)=NC3)CC1` , what is its reported ED50?
// result > 50 mg/kg
